// values below are reported melting point

// known answers, use as guide
Specify reported melting point for the compound shown: `C=CC(=O)Nc1ccc(-c2cn(C3CCN(Cc4ccc(-c5nc6ccccn6c5-c5ccccc5C)cc4)CC3)nn2)cc1` 169 to 170 °C

Specify reported melting point for the compound shown: `C=CC(=O)Nc1cccc(-c2cn(C3CCN(Cc4ccc(-c5nc6ccc(C)cn6c5-c5ccccc5)cc4)CC3)nn2)c1` 217 to 219 °C

Specify reported melting point for the compound shown: `C=CC(=O)Nc1cccc(-c2cn(C3CCN(Cc4ccc(-c5nc6ccccn6c5-c5ccccc5C)cc4)CC3)nn2)c1` 124 to 126 °C

Specify reported melting point for the compound shown: `C=CC(=O)Nc1cccc(-c2cn(C3CCN(Cc4ccc(-c5nc6ccccn6c5-c5cccc(C)c5)cc4)CC3)nn2)c1` 130 to 132 °C

Specify reported melting point for the compound shown: `C=CC(=O)Nc1cccc(-c2cn(C3CCN(Cc4ccc(-c5nc6cc[nH]c(=O)c6cc5-c5ccccc5)cc4)CC3)nn2)c1` 252 to 254 °C

Specify reported melting point for the compound shown: `C=CC(=O)Nc1cc2c(cc1Cl)[nH]c(=O)n2C1CCN(Cc2ccc(-c3nc4ccccn4c3-c3ccccc3)cc2)CC1` 80 to 82 °C

Specify reported melting point for the compound shown: `C=CC(=O)Nc1ccc2[nH]c(=O)n(C3CCN(Cc4ccc(-c5nc6ccccn6c5-c5ccccc5)cc4)CC3)c2c1` 221 to 223 °C

Pending compound:
Specify reported melting point for the compound shown: `C=CC(=O)Nc1ccccc1-c1cn(C2CCN(Cc3ccc(-c4nc5ccccn5c4-c4ccccc4C)cc3)CC2)nn1` 128 to 130 °C

---

System: MCF-7 cells
test: CellTiter-Glo Luminescent Cell Viability Assay, MCF-7
Assay type: cell-based
particulars: Homo sapiens, MCF7; breast cancer cell line; mean ± SD, n=3; read-out: EC50 MCF‐7
pEC50: −log10 of the molar value.
property: pEC50

// known answers, use as guide
Specify reported pEC50 for the compound shown: C=CC(=O)Nc1cc2c(cc1Cl)[nH]c(=O)n2C1CCN(Cc2ccc(-c3nc4ccccn4c3-c3ccccc3)cc2)CC1 [Compound 12] 5.37

Specify reported pEC50 for the compound shown: C=CC(=O)Nc1ccc2[nH]c(=O)n(C3CCN(Cc4ccc(-c5nc6ccccn6c5-c5ccccc5)cc4)CC3)c2c1 [Compound 11] 5.96

1. C=CC(=O)Nc1ccccc1-c1cn(C2CCN(Cc3ccc(-c4nc5ccccn5c4-c4ccccc4)cc3)CC2)nn1 [Compound 4]
2. C=CC(=O)Nc1cccc(-c2cn(C3CCN(Cc4ccc(-c5nc6ccccn6c5-c5cccc(C)c5)cc4)CC3)nn2)c1 [Compound 9]
Pick one, 1 or 2 : lowest reported pEC50. API: response body contains the label of the selected item. 1
(1: 5.07, 2: 5.44)

---

Test system: T47D cells
test: CellTiter-Glo Luminescent Cell Viability Assay, T47D
Assay type: cell-based
particulars: Homo sapiens, breast cancer cell line, mean ± SD, n=3
property: EC50 (µM)

Specify reported EC50 for the compound shown: C=CC(=O)Nc1cccc(-c2cn(C3CCN(Cc4ccc(-c5nc6cc[nH]c(=O)c6cc5-c5ccccc5)cc4)CC3)nn2)c1 [Compound 13] 0.088

1. C=CC(=O)Nc1cccc(-c2cn(C3CCN(Cc4ccc(-c5nc6ccc(C)cn6c5-c5ccccc5)cc4)CC3)nn2)c1 [Compound 10]
2. C=CC(=O)Nc1cccc(-c2cn(C3CCN(Cc4ccc(-c5nc6ccccn6c5-c5ccccc5)cc4)CC3)nn2)c1 [Compound 3]
Pick one, 1 or 2 : lowest reported EC50. API: response body contains the label of the selected item. 2
